- Assay overview: self-splicing fitness, log relative to wild type (ln ratio); higher = more splicing; Tetrahymena group I intron in knt gene, E. coli kanamycin selection, DiMSum; sequences stand for … in CUCUCU…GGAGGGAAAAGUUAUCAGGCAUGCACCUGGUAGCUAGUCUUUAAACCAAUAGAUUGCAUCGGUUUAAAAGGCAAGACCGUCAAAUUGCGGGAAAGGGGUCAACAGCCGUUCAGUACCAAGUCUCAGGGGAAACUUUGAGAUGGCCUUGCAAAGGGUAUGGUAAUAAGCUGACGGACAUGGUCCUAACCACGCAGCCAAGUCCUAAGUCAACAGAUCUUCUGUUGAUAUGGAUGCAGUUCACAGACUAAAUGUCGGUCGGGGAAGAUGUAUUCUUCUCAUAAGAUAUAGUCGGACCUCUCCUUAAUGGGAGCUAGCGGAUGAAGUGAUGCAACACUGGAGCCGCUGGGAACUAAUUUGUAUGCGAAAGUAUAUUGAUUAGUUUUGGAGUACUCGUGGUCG;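 note: selection with 25 µg/mL kanamycin versus none on LB agar overnight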
- Experimental setup: 37 °C
Exercise: state measured self-splicing fitness (ln) for each of the sequences provided.
Give the value as a plain number.

self-splicing fitness (ln) for `AUGUAGCAAUAUUACGCAUC` ?
-2.51

self-splicing fitness (ln) for `CAUUAGCAAUAUUACGCAAC` ?
-2.51

self-splicing fitness (ln) for `GGCAAGCAAUAUUACGCGGA` ?
-0.268

self-splicing fitness (ln) for `GUUUAGCAAUAUUACGGCCG` ?
-0.926

self-splicing fitness (ln) for `AGAGAGCAAUAUUACGGUUC` ?
-2.11

self-splicing fitness (ln) for `UAGAAGCAAUAUUACGUCCA` ?
0.309

self-splicing fitness (ln) for `CUAGAGCAAUAUUACGUUGC` ?
-2.18

self-splicing fitness (ln) for `AGAAAGCAAUAUUACGCCAC` ?
-2.07

self-splicing fitness (ln) for `GUCUAGCAAUAUUACGCGAG` ?
0.182

self-splicing fitness (ln) for `ACGUAGCAAUAUUACGUCGA` ?
-2.72

self-splicing fitness (ln) for `GACAAGCAAUAUUACGUUCC` ?
-2.8

self-splicing fitness (ln) for `GGAAAGCAAUAUUACGUGCA` ?
0.36

self-splicing fitness (ln) for `GGGUAGCAAUAUUACGAGGG` ?
-2.55

self-splicing fitness (ln) for `UGAAAGCAAUAUUACGCUUU` ?
-2.53

self-splicing fitness (ln) for `CGAAAGCAAUAUUACGGGUC` ?
-3.76

self-splicing fitness (ln) for `AAGAAGCAAUAUUACGCCGG` ?
-1.81

self-splicing fitness (ln) for `CGAAAGCAAUAUUACGGCGG` ?
0.456

self-splicing fitness (ln) for `CAAGAGCAAUAUUACGUAGU` ?
-1.78

self-splicing fitness (ln) for `GACAAGCAAUAUUACGUACU` ?
-0.397

self-splicing fitness (ln) for `CGUCAGCAAUAUUACGGUCU` ?
-0.828

self-splicing fitness (ln) for `AUUGAGCAAUAUUACGGCGU` ?
0.573

self-splicing fitness (ln) for `ACACAGCAAUAUUACGUAAA` ?
-1.2

self-splicing fitness (ln) for `CCUAAGCAAUAUUACGGUCU` ?
-2.94

self-splicing fitness (ln) for `CCUCAGCAAUAUUACGGUUC` ?
-3.16

self-splicing fitness (ln) for `CAGGAGCAAUAUUACGGCUA` ?
-1.34

self-splicing fitness (ln) for `UCCGAGCAAUAUUACGCCAU` ?
-3.16

self-splicing fitness (ln) for `ACAAAGCAAUAUUACGCAUC` ?
-1.74

self-splicing fitness (ln) for `CUCAAGCAAUAUUACGAAUG` ?
-1.66

self-splicing fitness (ln) for `CGCCAGCAAUAUUACGAAAU` ?
-2.69

self-splicing fitness (ln) for `CCUCAGCAAUAUUACGGGCG` ?
-0.619

self-splicing fitness (ln) for `ACCAAGCAAUAUUACGUGUC` ?
-3.34

self-splicing fitness (ln) for `GACGAGCAAUAUUACGCUUU` ?
-0.0656

self-splicing fitness (ln) for `CCUCAGCAAUAUUACGGUCG` ?
-0.505

self-splicing fitness (ln) for `CUUUAGCAAUAUUACGGCAA` ?
-1.98

----------
- Assay overview: self-splicing fitness, log relative to wild type (ln ratio); higher = more splicing; Tetrahymena group I intron in knt gene, E. coli kanamycin selection, DiMSum; sequences stand for … in CUCUCU…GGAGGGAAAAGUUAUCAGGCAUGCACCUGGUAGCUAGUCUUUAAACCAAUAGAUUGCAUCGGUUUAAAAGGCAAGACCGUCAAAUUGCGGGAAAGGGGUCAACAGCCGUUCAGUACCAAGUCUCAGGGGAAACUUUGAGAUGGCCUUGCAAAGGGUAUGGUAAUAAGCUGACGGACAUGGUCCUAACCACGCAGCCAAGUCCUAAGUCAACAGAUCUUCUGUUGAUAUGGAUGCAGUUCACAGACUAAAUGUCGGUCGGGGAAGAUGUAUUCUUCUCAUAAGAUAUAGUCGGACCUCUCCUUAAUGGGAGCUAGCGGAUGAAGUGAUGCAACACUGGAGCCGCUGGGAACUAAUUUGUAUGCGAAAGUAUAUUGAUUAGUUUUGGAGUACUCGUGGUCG
- Experimental setup: 30 °C
Mark N for self-splicing fitness (ln) values under -2, and Y for everything at or above.

Form field: self-splicing fitness (ln) at least -2? Entry: `AGAGAGCAAUAUUACGUUGC`
N

Form field: self-splicing fitness (ln) at least -2? Entry: `UCCCAGCAAUAUUACGUAUA`
N

Form field: self-splicing fitness (ln) at least -2? Entry: `AUCGAGCAAUAUUACGAAUA`
N

Form field: self-splicing fitness (ln) at least -2? Entry: `GCUCAGCAAUAUUACGAUGC`
Y

Form field: self-splicing fitness (ln) at least -2? Entry: `GCAGAGCAAUAUUACGAAAG`
N

Form field: self-splicing fitness (ln) at least -2? Entry: `CCUCAGCAAUAUUACGUCAC`
N

Form field: self-splicing fitness (ln) at least -2? Entry: `GAUUAGCAAUAUUACGUUCG`
Y

Form field: self-splicing fitness (ln) at least -2? Entry: `GCCUAGCAAUAUUACGAAAU`
N

Form field: self-splicing fitness (ln) at least -2? Entry: `CAAGAGCAAUAUUACGAUGU`
N

Form field: self-splicing fitness (ln) at least -2? Entry: `AGUGAGCAAUAUUACGUCGU`
N

Form field: self-splicing fitness (ln) at least -2? Entry: `UGCUAGCAAUAUUACGCAAG`
N

Form field: self-splicing fitness (ln) at least -2? Entry: `GAACAGCAAUAUUACGUGUG`
Y

Form field: self-splicing fitness (ln) at least -2? Entry: `UGCGAGCAAUAUUACGUGGU`
N

Form field: self-splicing fitness (ln) at least -2? Entry: `GAUGAGCAAUAUUACGCUUA`
N

Form field: self-splicing fitness (ln) at least -2? Entry: `GUCAAGCAAUAUUACGCAUG`
N

Form field: self-splicing fitness (ln) at least -2? Entry: `GGCCAGCAAUAUUACGCCUC`
Y

----------
- Assay overview: self-splicing fitness, log relative to wild type (ln ratio); higher = more splicing; Tetrahymena group I intron in knt gene, E. coli kanamycin selection, DiMSum; sequences stand for … in CUCUCU…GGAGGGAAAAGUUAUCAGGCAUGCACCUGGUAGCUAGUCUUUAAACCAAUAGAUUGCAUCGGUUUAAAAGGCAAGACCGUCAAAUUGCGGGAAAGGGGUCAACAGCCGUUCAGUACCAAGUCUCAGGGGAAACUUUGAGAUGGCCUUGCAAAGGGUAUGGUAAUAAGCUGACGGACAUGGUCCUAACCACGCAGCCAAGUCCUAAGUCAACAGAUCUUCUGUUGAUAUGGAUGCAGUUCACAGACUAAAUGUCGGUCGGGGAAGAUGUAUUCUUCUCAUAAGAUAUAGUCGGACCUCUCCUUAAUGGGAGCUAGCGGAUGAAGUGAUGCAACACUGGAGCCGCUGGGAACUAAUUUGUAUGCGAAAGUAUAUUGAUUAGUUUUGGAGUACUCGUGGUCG
- Experimental setup: 37 °C
Readout label: self-splicing fitness (ln)
Give the value as a plain number.

self-splicing fitness (ln) for `CCCCAGCAAUAUUACGUAGA` ?
-2.7

self-splicing fitness (ln) for `GACCAGCAAUAUUACGGCCA` ?
0.208

self-splicing fitness (ln) for `AAAAAGCAAUAUUACGAGGG` ?
-1.84

self-splicing fitness (ln) for `UCGCAGCAAUAUUACGGAAG` ?
-1.74

self-splicing fitness (ln) for `GAAUAGCAAUAUUACGGUCC` ?
-0.862

self-splicing fitness (ln) for `UGUAAGCAAUAUUACGCAGC` ?
-1.44

self-splicing fitness (ln) for `GCUAAGCAAUAUUACGUUCU` ?
-0.467

self-splicing fitness (ln) for `UUGCAGCAAUAUUACGCGAA` ?
-0.846

self-splicing fitness (ln) for `CUGAAGCAAUAUUACGUUGU` ?
-2.28

self-splicing fitness (ln) for `ACACAGCAAUAUUACGACUA` ?
-0.346

self-splicing fitness (ln) for `AGCUAGCAAUAUUACGAGCC` ?
-2.5

self-splicing fitness (ln) for `CACCAGCAAUAUUACGUAGA` ?
-0.916

self-splicing fitness (ln) for `UAUCAGCAAUAUUACGGUAC` ?
-2.54

self-splicing fitness (ln) for `GCAAAGCAAUAUUACGUGGA` ?
-2.36

self-splicing fitness (ln) for `AGGAAGCAAUAUUACGCCAU` ?
-2

self-splicing fitness (ln) for `AGUAAGCAAUAUUACGCGAG` ?
-1.75

self-splicing fitness (ln) for `UACAAGCAAUAUUACGUAGA` ?
-1.46

self-splicing fitness (ln) for `CCAGAGCAAUAUUACGAACG` ?
0.191

self-splicing fitness (ln) for `GAUCAGCAAUAUUACGAUGA` ?
0.313

self-splicing fitness (ln) for `AAUCAGCAAUAUUACGGUUA` ?
-0.408

self-splicing fitness (ln) for `UACGAGCAAUAUUACGUCGC` ?
-2.49

self-splicing fitness (ln) for `UUUCAGCAAUAUUACGUAUA` ?
-0.0411

self-splicing fitness (ln) for `CGCUAGCAAUAUUACGGUUU` ?
-0.856

self-splicing fitness (ln) for `GGGAAGCAAUAUUACGAAUG` ?
-0.92

self-splicing fitness (ln) for `AUCUAGCAAUAUUACGGUCG` ?
0.125

self-splicing fitness (ln) for `UGCCAGCAAUAUUACGCGAA` ?
0.357

self-splicing fitness (ln) for `UAUAAGCAAUAUUACGCAGA` ?
-1.25

self-splicing fitness (ln) for `AGUUAGCAAUAUUACGAGGC` ?
-3.27

self-splicing fitness (ln) for `AUUGAGCAAUAUUACGCAUG` ?
-0.903

self-splicing fitness (ln) for `CAACAGCAAUAUUACGAGCG` ?
0.702

self-splicing fitness (ln) for `GAGAAGCAAUAUUACGAUUU` ?
0.493

self-splicing fitness (ln) for `GCUGAGCAAUAUUACGCGUU` ?
-1.73

self-splicing fitness (ln) for `UCAUAGCAAUAUUACGCCCG` ?
-0.292

self-splicing fitness (ln) for `AGUCAGCAAUAUUACGUUUG` ?
-2.53
